In this section, each of the compounds is paired with its reported normalized growth.
# test protocol: chemical genetic growth profiling, strain panel (AID 1159580);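 further: tested at 20 µM; growth read once vehicle control cultures reached saturation at 30 °C; 1 = growth at the plate median or of vehicle wells; lower values mean less growth of the strain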
# applied conditions: S. cerevisiae deletion strains, growth OD, locus YJR066W, strain TOR1, hits give low values
The campaign covered roughly 5,500 compounds. About 2,000 (36%) were called active. Roughly 18% stayed inconclusive and do not appear here. The list shows a part of the results.
API doc: respond with a numeric literal and nothing else, no unit.

Reference set (3 entries):
# molecule smiles, assay endpoint, measured
records = [
    ("COc1cc(OC)c(C(=O)CCCN2CCCC2)c(OC)c1", "normalized growth", 0.973),
    ("O=C(CCN1CCCCC1)c1ccc(-c2ccccc2)cc1", "normalized growth", 0.733),
    ("CCc1nc(N)nc(N)c1-c1ccc(Cl)cc1", "normalized growth", 0.994),
]

Given OC(CCN1CCCCC1)(c1ccccc1)c1ccccc1 , respond with its normalized growth.
0.938

Given COc1cc2oc3cc(OC)c(OC)c(CC=C(C)C)c3c(=O)c2c(O)c1CC=C(C)C , respond with its normalized growth.
0.934

Given Cn1cc[nH]c1=S , respond with its normalized growth.
0.991

Given COc1c(O)cc2oc3cc(O)c(CC=C(C)C)c(O)c3c(=O)c2c1CC=C(C)C , respond with its normalized growth.
0.891

Given CCCCOc1ccc(C(=O)CCN2CCCCC2)cc1 , respond with its normalized growth.
0.67

---

# test protocol: chemical genetic growth profiling, strain panel (AID 1159580)
# applied conditions: S. cerevisiae deletion strains, growth OD, locus YLR342W, strain FKS1 (second series), hits give low values
The whole screen tested about 5,500 compounds, of which about 2,000 (36%) were called active. Another 18% or so got no clear call; they are omitted. The list shows a part of the results.
In this section, each of the molecules is paired with its reported normalized growth.
API doc: respond with a numeric literal and nothing else, no unit.

Given Cn1cc[nH]c1=S , respond with its normalized growth.
1.01

Given CC1(O)/C=C/C=C(\CO)C2CC(C)(C)C2(O)CC1 (stereo not drawn) , respond with its normalized growth.
1.02

Given O=C1CC(c2ccccc2)Oc2ccccc21 (stereo not drawn) , respond with its normalized growth.
0.944

---

In this section, each of the compounds is paired with its reported normalized growth.
# test protocol: chemical genetic growth profiling, strain panel (AID 1159580)
# applied conditions: S. cerevisiae deletion strains, growth OD, locus YJR043C, strain POL32, hits give low values
Screen size: about 5,500 compounds; about 2,000 (36%) were called active. Not shown: some 18% with an inconclusive outcome. This is one part of the list.
API doc: respond with a numeric literal and nothing else, no unit.

# molecule smiles, assay endpoint, measured
records = [
    ("COC(=O)COc1cc(Cl)c(Cl)cc1Cl", "normalized growth", 0.942),
]

Given O=C(O)COc1cc(Cl)c(Cl)cc1Cl , respond with its normalized growth.
1.01

Given O=C(O)CSCCOc1ccccc1 , respond with its normalized growth.
1.01

---

# test protocol: chemical genetic growth profiling, strain panel (AID 1159580);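 further: tested at 20 µM; growth read once vehicle control cultures reached saturation at 30 °C; 1 = growth at the plate median or of vehicle wells; lower values mean less growth of the strain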
# applied conditions: S. cerevisiae deletion strains, growth OD, locus YEL061C, strain CIN8 (second series), hits give low values
Screen size: about 5,500 compounds; about 2,000 (36%) were called active. Another 18% or so got no clear call; they are omitted. The list shows a part of the results.
Field: label. Allowed values: MET (normalized growth < 1) or NOT MET (normalized growth >= 1).

Recorded results for 3 compounds are shown here.
# compound, answer label
records = [
    ("CC(=O)O[C@]1(C(C)=O)CCC2C3C=C(C)C4=CC(=O)CCC4(C)C3CCC21C (some centres undefined)", "MET"),
    ("CC(=O)O[C@]1(C(C)=O)CCC2C3C[C@H](C)C4=CC(=O)CC[C@]4(C)C3CC[C@@]21C (some centres undefined)", "MET"),
    ("COc1cccc([C@]2(O)CCCC[C@H]2CN(C)C)c1", "MET"),
]

Confirm or reject: normalized growth of NC[C@@H]1O[C@H](O[C@@H]2[C@@H](CO)OC(O[C@@H]3[C@@H](O)[C@H](N)C[C@H](N)[C@H]3OC3O[C@H](CN)[C@@H](O)[C@H](O)[C@H]3N)[C@@H]2O)[C@H](N)[C@@H](O)[C@@H]1O (some centres undefined) lies strictly below 1
NOT MET

Confirm or reject: normalized growth of COc1ccc2c(c1)[C@@]1(C)CCC(=O)C[C@H]1CC2 lies strictly below 1
MET

---

# test protocol: chemical genetic growth profiling, strain panel (AID 1159580);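 further: tested at 20 µM; growth read once vehicle control cultures reached saturation at 30 °C; 1 = growth at the plate median or of vehicle wells; lower values mean less growth of the strain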
# applied conditions: S. cerevisiae deletion strains, growth OD, locus YPL078C, strain atp4, hits give low values
Hit rate of the full screen: of about 5,500 compounds, about 2,000 (36%) were called active. Inconclusive results (about 18%) are left out. This is one part of the list.
assay endpoint: normalized growth
API doc: respond with a numeric literal and nothing else, no unit.

Reference set (5 entries):
# compound, normalized growth
records = [
    ("O=C(O)C1CC([C@@H]2CCCCN2)CN2CCCCC12 (some centres not stated)", 0.988),
    ("NC(N)=NOCC[C@H](N)C(=O)O", 1.02),
    ("COC(=O)C1=COC(OC2OC(CO)C(O)C(O)C2O)C2C(C)CC(=O)C12O (configuration not stated)", 0.954),
    ("Cc1cc(C(C)(C)CC(C)(C)C)ccc1OCCOCC[N+](C)(C)Cc1ccccc1", 0.0619),
    ("COc1cccc([C@]2(O)CCCC[C@H]2CN(C)C)c1", 0.968),
]

Given COc1ccc(C2CC(=O)c3ccc(OC)cc3O2)cc1 (configuration not stated) , respond with its normalized growth.
0.888

Given O=[N+]([O-])O[C@H]1CO[C@H]2[C@@H]1OC[C@H]2O[N+](=O)[O-] , respond with its normalized growth.
0.979

Given O=C(Cc1ccccc1)NO , respond with its normalized growth.
0.97

Given CC(C)(C)CC(C)(C)c1ccc(OCCOCC[N+](C)(C)Cc2ccccc2)cc1 , respond with its normalized growth.
0.0749

Given CCCCOc1ccc(CC(=O)NO)cc1 , respond with its normalized growth.
1

Given O=C(O)COc1cc(Cl)c(Cl)cc1Cl , respond with its normalized growth.
1

Given O=C1C[C@@H](c2ccc(O)cc2)Oc2cc(O)cc(O)c21 , respond with its normalized growth.
0.971

---

In this section, each of the molecules is paired with its reported normalized growth.
# test protocol: chemical genetic growth profiling, strain panel (AID 1159580);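 further: tested at 20 µM; growth read once vehicle control cultures reached saturation at 30 °C; 1 = growth at the plate median or of vehicle wells; lower values mean less growth of the strain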
# applied conditions: S. cerevisiae deletion strains, growth OD, locus YJL187C, strain SWE1 (second series), hits give low values
Screen size: about 5,500 compounds; about 2,000 (36%) were called active. Inconclusive results (about 18%) are left out. The list shows a part of the results.
API doc: respond with a numeric literal and nothing else, no unit.

Reference set (6 entries):
# molecule, normalized growth
rows = [
    ("CC(=C(CCOP(=O)(O)O)SC(=O)c1ccccc1)N(C=O)Cc1cnc(C)nc1N", 1.01),
    ("NC(N)=Nc1nc(CSCCC(N)=NS(N)(=O)=O)cs1", 1.02),
    ("CC1(C)C2CC[C@]3(C)C(C(=O)C=C4[C@@H]5C[C@@](C)(C(=O)O)CC[C@]5(C)CC[C@]43C)[C@@]2(C)CC[C@@H]1OC(=O)CCC(=O)O (stereo partly drawn)", 1.02),
    ("COC(=O)C1[C@H]2C[C@H]3c4[nH]c5ccccc5c4CCN3C[C@@H]2CC[C@@H]1O (stereo partly drawn)", 1.03),
    ("C[N+](C)(C)CC(=O)[O-]", 0.988),
    ("Cn1cc[nH]c1=S", 1),
]

Given Cc1ccc(C(=O)C(C)CN2CCCCC2)cc1 (stereo not drawn) , respond with its normalized growth.
1

Given CCCCCC(C)N (stereo not drawn) , respond with its normalized growth.
1.01

Given COc1c2c(c(CC=C(C)C)c3oc(=O)c(-c4ccc(O)cc4)c(O)c13)OC(C)(C)C=C2 , respond with its normalized growth.
0.837

Given OC(CCN1CCCCC1)(c1ccccc1)c1ccccc1 , respond with its normalized growth.
1.01

Given O=C(O)C1CC([C@@H]2CCCCN2)CN2CCCCC12 (stereo partly drawn) , respond with its normalized growth.
1.04

Given COC(=O)[C@@H]1C(O)CC[C@H]2CN3CCc4c([nH]c5ccccc45)[C@@H]3C[C@@H]21 (stereo partly drawn) , respond with its normalized growth.
0.995

Given COc1ccc(-c2coc3c(O)c(OC)ccc3c2=O)cc1 , respond with its normalized growth.
0.904

Given CCOC(=O)/C=C(\C)OP(=O)(OC)OC , respond with its normalized growth.
0.983

Given O=C(/C=C/C=C/c1ccc2c(c1)OCO2)N1CCCCC1 , respond with its normalized growth.
0.942

Given COc1ccc(-c2coc3c(OC)c(OC)cc(OC)c3c2=O)cc1 , respond with its normalized growth.
0.971

Given CC(C)(C)CC(C)(C)c1ccc(OCCOCC[N+](C)(C)Cc2ccccc2)cc1 , respond with its normalized growth.
0.989

Given CCCCOc1ccc(C(=O)CCN2CCCCC2)cc1 , respond with its normalized growth.
0.84
